Dear all, this message contains pIC50 results, target or system Proto-oncogene tyrosine-protein kinase Src (Homo sapiens).
Please treat pIC50 as minus the base-10 logarithm of the molar concentration.

Nc1ncnc2c1c(-c1ccc(O)cc1)cn2[C@@H]1CN[C@H](CO)C1: 7.30
CCOC(=O)C[C@@H]1C[C@H](n2cc(-c3ccccc3)c3c(N)ncnc32)CN1C(=O)OC(C)(C)C: 5.30
CC(C)(C)OC(=O)N1C[C@@H](n2cc(-c3ccccc3)c3c(N)ncnc32)C[C@H]1CO: 5.70
Nc1ncnc2c1c(-c1ccc(O)cc1)cn2C1CCCC1: 7.70
CCOC(=O)C[C@@H]1C[C@@H](n2cc(-c3ccc(O)cc3)c3c(N)ncnc32)CN1: 7.00
COc1cccc(-c2cn(C3CCN(CCO)CC3)c3ncnc(N)c23)c1: 7.60

Let us move to another entry and its pIC50.
*Q* What value of pIC50 has been reported for the following compound? Nc1ncnc2c1c(-c1cccc(O)c1)cn2C1CCCC1
*A* 9.00

###

measurementTarget: Proto-oncogene tyrosine-protein kinase Src (Homo sapiens, UniProt P12931)
Sequence (P12931 2-536 limits assumed): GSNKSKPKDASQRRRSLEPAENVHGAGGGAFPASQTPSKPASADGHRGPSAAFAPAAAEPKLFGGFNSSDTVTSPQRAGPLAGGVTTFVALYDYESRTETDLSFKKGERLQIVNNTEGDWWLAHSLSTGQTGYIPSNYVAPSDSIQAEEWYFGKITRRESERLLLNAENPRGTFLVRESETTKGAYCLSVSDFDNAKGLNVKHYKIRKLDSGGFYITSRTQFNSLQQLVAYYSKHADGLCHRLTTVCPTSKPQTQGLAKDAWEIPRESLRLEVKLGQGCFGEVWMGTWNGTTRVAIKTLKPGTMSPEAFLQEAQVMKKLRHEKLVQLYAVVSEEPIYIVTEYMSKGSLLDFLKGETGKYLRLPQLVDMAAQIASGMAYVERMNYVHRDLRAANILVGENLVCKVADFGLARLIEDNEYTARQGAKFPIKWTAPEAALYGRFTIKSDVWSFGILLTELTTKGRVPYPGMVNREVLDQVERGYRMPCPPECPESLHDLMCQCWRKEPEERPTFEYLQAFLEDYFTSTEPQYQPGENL
experimentSummary: Inhibition of c-Src
measurementKind: pKi
pKi is a log-scale quantity: -log10 of the concentration expressed in molar.

CSc1nc(Nc2cccc(Cl)c2)c2cnn(CC(Cl)c3ccccc3)c2n1 (configuration not stated): 6.10

*Q* What pKi value was documented for this compound, CCCNc1ncnc2c1cnn2CC(O)c1ccccc1 (configuration not stated) ?
*A* 5.00
